Assay: Antiproliferative activity against human DND1 cells
Format: functional, cell-based
Below: a set of entries, each annotated with reported IC50.
The reply should contain only the number, in nM.

Consider the reported IC50 for these compounds:
(Q) Supply IC50 value. Item: COc1cc([C@@H]2c3cc4c(cc3[C@H](O)[C@H]3COC(=O)[C@H]23)OCO4)cc(OC)c1OC
(A) 12

(Q) Indicate the recorded IC50 value for this compound: CCn1c2ccccc2c2cc(S(=O)(=O)Nc3ccc(OC)cc3OC)ccc21
(A) 120

(Q) Dear colleague, please send me the reported IC50 for COc1ccc(/C=C\c2cc(OC)c(OC)c(OC)c2)cc1O when you can.
(A) 2.5

(Q) Please report IC50 for the following compound: CCn1c2ccccc2c2cc(S(=O)(=O)Nc3cc(OC)c(OC)c(OC)c3)ccc21
(A) 89

Now look at this one.
(Q) Quick one: give measured IC50 for CCn1c2ccccc2c2cc(S(=O)(=O)Nc3ccc(OC)nc3OC)ccc21
(A) 193
